assay_info: yeast display, Sf9 membrane polyspecificity reagent, FACS + sequencing; frameworks hold sequencing errors
readout_type: polyreactivity (PSR sort gate)

QVQLVDSGGGLVQAGGSLRLSCPASGSIISVYARGWYRQAPGKERELVADITGTGDTYYADSVKGRFTISRDKAKNTVYLHRNSLKPDDTAGYYCNTVYELYYDPSVTEDYWGQGTQVTVSS : low polyreactivity
QVQLVESGGGLVQAGGSLRLSCAASVRTFVVYAMGWYRQAPGKEREMVAVISFTGDSTFYADSVKGRFTISRDNAKNTVYLQMNSLKPEDTAVYYCNAGPYTYLHWNQAISRYYYWGQGTQVTVSS : low polyreactivity
